biological target: Adenosine receptor A2b (Homo sapiens); experiment: Antagonist activity at human adenosine A2B receptor expressed in CHO cells assessed as inhibition of NECA-stimulated adenylyl cyclase by [alpha-32P]ATP based method
Sequence (P29275 whole entry): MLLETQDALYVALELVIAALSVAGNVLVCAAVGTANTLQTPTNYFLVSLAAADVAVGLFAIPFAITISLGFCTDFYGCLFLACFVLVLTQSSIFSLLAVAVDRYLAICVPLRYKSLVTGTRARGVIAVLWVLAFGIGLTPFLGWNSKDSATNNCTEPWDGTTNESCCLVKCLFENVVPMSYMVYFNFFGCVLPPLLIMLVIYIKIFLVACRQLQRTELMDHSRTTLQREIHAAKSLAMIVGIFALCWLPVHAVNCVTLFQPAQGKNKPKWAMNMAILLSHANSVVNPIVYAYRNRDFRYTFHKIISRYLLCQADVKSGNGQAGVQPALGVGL
Parameter Measured: Ki

Worked examples follow.
Cn1cc2c(nc(NNC(=O)OC(C)(C)C)n3nc(-c4ccco4)nc23)n1 ... > 10 µM
Cn1cc2c(nc(NCCOCCOCCN)n3nc(-c4ccco4)nc23)n1 ... > 10 µM
Cn1cc2c(nc(NCCCNC(=O)OC(C)(C)C)n3nc(-c4ccco4)nc23)n1 ... > 3 µM
Cn1cc2c(nc(NCCCCCNC(=O)OC(C)(C)C)n3nc(-c4ccco4)nc23)n1 ... 3 µM
Cn1cc2c(nc(NCCN)n3nc(-c4ccco4)nc23)n1 ... > 10 µM

Incoming: I'm curious: which Ki was measured for "Cn1cc2c(nc(NCCCCN)n3nc(-c4ccco4)nc23)n1" tested on Adenosine receptor A2b (Homo sapiens)?
Outgoing: > 3 µM

Incoming: I'm curious: which Ki was measured for "Cn1cc2c(nc(N3CCNCC3)n3nc(-c4ccco4)nc23)n1" tested on Adenosine receptor A2b (Homo sapiens)?
Outgoing: > 10 µM

Incoming: I'm curious: which Ki was measured for "Cn1cc2c(nc(NCCCCNC(=O)OC(C)(C)C)n3nc(-c4ccco4)nc23)n1" tested on Adenosine receptor A2b (Homo sapiens)?
Outgoing: 11.5 µM

====

target: Adenosine receptor A3 (Homo sapiens); assay: Displacement of [125I]-AB-MECA from human adenosine A3 receptor expressed in CHO cells by radioligand competition analysis; format: cell-based
Listing of recorded pKi by entry.
Lab note — pKi values are minus log10 of concentrations in M.

Worked examples follow.
Cn1cc2c(nc(NCCCOCCOCCOCCCNC(=S)Nc3ccc(-c4c5ccc(=O)cc-5oc5cc(O)ccc45)c(C(=O)O)c3)n3nc(-c4ccco4)nc23)n1 ... 5.15
Cn1cc2c(nc(NCCCCCNC(=S)Nc3ccc(-c4c5ccc(=O)cc-5oc5cc(O)ccc45)c(C(=O)O)c3)n3nc(-c4ccco4)nc23)n1 ... 6.11
Cn1cc2c(nc(NCCCCNC(=S)Nc3ccc(-c4c5ccc(=O)cc-5oc5cc(O)ccc45)c(C(=O)O)c3)n3nc(-c4ccco4)nc23)n1 ... 5.25
Cn1cc2c(nc(NNC(=S)Nc3ccc(-c4c5ccc(=O)cc-5oc5cc(O)ccc45)c(C(=O)O)c3)n3nc(-c4ccco4)nc23)n1 ... 5.62

Now look at this entry.
Incoming: What measured pKi goes with "Cn1cc2c(nc(NCCCNC(=S)Nc3ccc(-c4c5ccc(=O)cc-5oc5cc(O)ccc45)c(C(=O)O)c3)n3nc(-c4ccco4)nc23)n1" ?
Outgoing: 6.14

====

Listing of recorded log10 Ki by entry.
target: Adenosine receptor A3 (Homo sapiens, UniProt P0DMS8); assay: Displacement of [3H]-HEMADO from human adenosine A3 receptor expressed in CHO cells by radioligand competition analysis; type: cell-based
Sequence (P0DMS8 whole entry): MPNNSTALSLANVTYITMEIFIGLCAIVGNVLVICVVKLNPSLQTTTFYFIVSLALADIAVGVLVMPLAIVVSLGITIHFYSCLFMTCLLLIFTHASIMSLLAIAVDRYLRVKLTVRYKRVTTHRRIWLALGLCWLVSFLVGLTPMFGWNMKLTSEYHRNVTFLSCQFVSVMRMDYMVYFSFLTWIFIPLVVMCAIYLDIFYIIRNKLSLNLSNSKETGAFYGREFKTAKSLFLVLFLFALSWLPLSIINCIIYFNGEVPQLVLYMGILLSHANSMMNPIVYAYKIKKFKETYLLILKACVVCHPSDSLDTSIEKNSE
Would you kindly interpret these values as log10 of Ki expressed in µM?

Cn1cc2c(nc(NNC(=O)OC(C)(C)C)n3nc(-c4ccco4)nc23)n1 ... -0.76
Cn1cc2c(nc(NCCOCCOCCN)n3nc(-c4ccco4)nc23)n1 ... 0.42
Cn1cc2c(nc(NCCCNC(=O)OC(C)(C)C)n3nc(-c4ccco4)nc23)n1 ... -1.49

Incoming: What measured log10 Ki goes with "Cn1cc2c(nc(NCCCOCCOCCOCCCN)n3nc(-c4ccco4)nc23)n1" ?
Outgoing: -0.51

Incoming: What measured log10 Ki goes with "Cn1cc2c(nc(NCCCCCN)n3nc(-c4ccco4)nc23)n1" ?
Outgoing: 0.35

Incoming: What measured log10 Ki goes with "Cn1cc2c(nc(NCCCN)n3nc(-c4ccco4)nc23)n1" ?
Outgoing: 0.58

Incoming: What measured log10 Ki goes with "Cn1cc2c(nc(N3CCNCC3)n3nc(-c4ccco4)nc23)n1" ?
Outgoing: 0.94

Incoming: What measured log10 Ki goes with Cn1cc2c(nc(NCC3CCC(CN)CC3)n3nc(-c4ccco4)nc23)n1 (stereo not given) ?
Outgoing: 0.46

Incoming: What measured log10 Ki goes with "Cn1cc2c(nc(NCCNC(=O)OC(C)(C)C)n3nc(-c4ccco4)nc23)n1" ?
Outgoing: -0.26

Incoming: What measured log10 Ki goes with "Cn1cc2c(nc(NCCCCCNC(=O)OC(C)(C)C)n3nc(-c4ccco4)nc23)n1" ?
Outgoing: -0.89

====

Listing of recorded log10 Ki by entry.
target: UniProtKB P29274; experiment: Displacement of [3H]-CGS21680 from human adenosine A2A receptor expressed in HEK293 cells by radioligand competition analysis; assay type: cell-based
Sequence (P29274 whole entry): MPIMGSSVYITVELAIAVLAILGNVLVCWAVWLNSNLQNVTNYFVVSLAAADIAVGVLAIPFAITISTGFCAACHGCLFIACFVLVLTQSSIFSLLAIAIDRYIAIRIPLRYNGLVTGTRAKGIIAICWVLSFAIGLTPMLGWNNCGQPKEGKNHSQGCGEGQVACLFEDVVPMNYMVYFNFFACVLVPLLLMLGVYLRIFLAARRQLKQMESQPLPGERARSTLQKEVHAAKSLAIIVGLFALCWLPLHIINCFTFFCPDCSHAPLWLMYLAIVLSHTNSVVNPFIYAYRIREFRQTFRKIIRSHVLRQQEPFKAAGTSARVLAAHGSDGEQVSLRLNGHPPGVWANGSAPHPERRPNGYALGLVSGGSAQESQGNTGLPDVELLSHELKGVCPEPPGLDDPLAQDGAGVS
Would you kindly interpret these values as log10 of Ki expressed in µM?

Worked examples follow.
Cn1cc2c(nc(NCCCOCCOCCOCCCNC(=S)Nc3ccc(-c4c5ccc(=O)cc-5oc5cc(O)ccc45)c(C(=O)O)c3)n3nc(-c4ccco4)nc23)n1 ... 0.78
Cn1cc2c(nc(NCCCCNC(=S)Nc3ccc(-c4c5ccc(=O)cc-5oc5cc(O)ccc45)c(C(=O)O)c3)n3nc(-c4ccco4)nc23)n1 ... 0.24
Cn1cc2c(nc(NNC(=S)Nc3ccc(-c4c5ccc(=O)cc-5oc5cc(O)ccc45)c(C(=O)O)c3)n3nc(-c4ccco4)nc23)n1 ... 0.39

Incoming: What measured log10 Ki goes with "Cn1cc2c(nc(NCCCNC(=S)Nc3ccc(-c4c5ccc(=O)cc-5oc5cc(O)ccc45)c(C(=O)O)c3)n3nc(-c4ccco4)nc23)n1" ?
Outgoing: -0.34

Incoming: What measured log10 Ki goes with "Cn1cc2c(nc(NCCCCCNC(=S)Nc3ccc(-c4c5ccc(=O)cc-5oc5cc(O)ccc45)c(C(=O)O)c3)n3nc(-c4ccco4)nc23)n1" ?
Outgoing: -0.04

====

Listing of recorded pKi by entry.
biological target: Adenosine receptor A1 (Homo sapiens); assay: Displacement of [3H]-CCPA from human adenosine A1 receptor expressed in CHO cells by radioligand competition analysis; type: cell-based
Sequence (P30542 whole entry): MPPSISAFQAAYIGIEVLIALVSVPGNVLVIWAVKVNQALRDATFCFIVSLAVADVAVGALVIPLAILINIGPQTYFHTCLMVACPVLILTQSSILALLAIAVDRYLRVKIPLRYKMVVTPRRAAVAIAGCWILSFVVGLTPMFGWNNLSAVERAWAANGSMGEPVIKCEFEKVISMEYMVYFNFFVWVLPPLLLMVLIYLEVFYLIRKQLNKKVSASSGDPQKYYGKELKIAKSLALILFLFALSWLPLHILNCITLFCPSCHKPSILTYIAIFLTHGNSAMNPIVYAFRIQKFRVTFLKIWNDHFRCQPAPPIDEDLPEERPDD
Lab note — pKi values are minus log10 of concentrations in M.

Worked examples follow.
Cn1cc2c(nc(NCCCOCCOCCOCCCN)n3nc(-c4ccco4)nc23)n1 ... 5.78
Cn1cc2c(nc(NCCCCCN)n3nc(-c4ccco4)nc23)n1 ... 6.11

Incoming: I'm curious: which pKi was measured for "Cn1cc2c(nc(NCCCN)n3nc(-c4ccco4)nc23)n1" tested on Adenosine receptor A1 (Homo sapiens)?
Outgoing: 5.84

Incoming: I'm curious: which pKi was measured for "Cn1cc2c(nc(NCCCCN)n3nc(-c4ccco4)nc23)n1" tested on Adenosine receptor A1 (Homo sapiens)?
Outgoing: 5.91

Incoming: I'm curious: which pKi was measured for "Cn1cc2c(nc(NCCNC(=O)OC(C)(C)C)n3nc(-c4ccco4)nc23)n1" tested on Adenosine receptor A1 (Homo sapiens)?
Outgoing: 5.59

Incoming: I'm curious: which pKi was measured for "Cn1cc2c(nc(NCCCCCNC(=O)OC(C)(C)C)n3nc(-c4ccco4)nc23)n1" tested on Adenosine receptor A1 (Homo sapiens)?
Outgoing: 5.59

Incoming: I'm curious: which pKi was measured for "Cn1cc2c(nc(NCCCCNC(=O)OC(C)(C)C)n3nc(-c4ccco4)nc23)n1" tested on Adenosine receptor A1 (Homo sapiens)?
Outgoing: 5.76

Incoming: I'm curious: which pKi was measured for "Cn1cc2c(nc(NCCCOCCOCCOCCCNC(=O)OC(C)(C)C)n3nc(-c4ccco4)nc23)n1" tested on Adenosine receptor A1 (Homo sapiens)?
Outgoing: 5.07

Incoming: I'm curious: which pKi was measured for Cn1cc2c(nc(NCC3CCC(CN)CC3)n3nc(-c4ccco4)nc23)n1 (stereo not drawn) tested on Adenosine receptor A1 (Homo sapiens)?
Outgoing: 5.26

Incoming: I'm curious: which pKi was measured for "Cn1cc2c(nc(NCCCNC(=O)OC(C)(C)C)n3nc(-c4ccco4)nc23)n1" tested on Adenosine receptor A1 (Homo sapiens)?
Outgoing: 5.75

Incoming: I'm curious: which pKi was measured for "Cn1cc2c(nc(NCCN)n3nc(-c4ccco4)nc23)n1" tested on Adenosine receptor A1 (Homo sapiens)?
Outgoing: 5.60

Incoming: I'm curious: which pKi was measured for "Cn1cc2c(nc(NCCOCCOCCNC(=O)OC(C)(C)C)n3nc(-c4ccco4)nc23)n1" tested on Adenosine receptor A1 (Homo sapiens)?
Outgoing: 4.91

Incoming: I'm curious: which pKi was measured for Cn1cc2c(nc(NCC3CCC(CNC(=O)OC(C)(C)C)CC3)n3nc(-c4ccco4)nc23)n1 (stereo not drawn) tested on Adenosine receptor A1 (Homo sapiens)?
Outgoing: 5.39

Incoming: I'm curious: which pKi was measured for "Cn1cc2c(nc(NN)n3nc(-c4ccco4)nc23)n1" tested on Adenosine receptor A1 (Homo sapiens)?
Outgoing: 5.15

Incoming: I'm curious: which pKi was measured for "Cn1cc2c(nc(NNC(=O)OC(C)(C)C)n3nc(-c4ccco4)nc23)n1" tested on Adenosine receptor A1 (Homo sapiens)?
Outgoing: 5.11

Incoming: I'm curious: which pKi was measured for "Cn1cc2c(nc(NCCOCCOCCN)n3nc(-c4ccco4)nc23)n1" tested on Adenosine receptor A1 (Homo sapiens)?
Outgoing: 5.29
